Biological target: dog ETA receptor (Canis lupus familiaris, UniProt Q5KSU9)
Sequence (Q5KSU9 21-426): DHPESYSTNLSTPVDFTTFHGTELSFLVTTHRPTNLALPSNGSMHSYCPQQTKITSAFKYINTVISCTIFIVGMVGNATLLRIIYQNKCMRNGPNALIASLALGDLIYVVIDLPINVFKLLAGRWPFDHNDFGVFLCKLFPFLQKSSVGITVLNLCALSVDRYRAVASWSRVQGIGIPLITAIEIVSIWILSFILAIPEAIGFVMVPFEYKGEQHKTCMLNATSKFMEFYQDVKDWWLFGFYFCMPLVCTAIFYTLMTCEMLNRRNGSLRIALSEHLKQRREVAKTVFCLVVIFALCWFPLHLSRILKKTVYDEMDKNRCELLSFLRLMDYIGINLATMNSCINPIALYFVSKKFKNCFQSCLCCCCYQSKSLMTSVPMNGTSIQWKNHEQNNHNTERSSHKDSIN
pKi: −log10 of the molar value.
result-type: pKi

>>> obs_value("COc1ccccc1Oc1c(NS(=O)(=O)CCc2ccccc2)nc(-c2cccnn2)nc1OC")
8.70
